ASSAY_PROCEDURE: PK of compound of Formula (Ia) after single subcutaneous dose of solution formulations in Wistar Han rats
Type: in vivo
ASSAY_CONDITIONS: male, Wistar Han, rat, plasma, sc, 50 mg/kg, 672 h; individual rats; SC 50 mg/kg; solution S, 500 mg/mL
MEASURED_PARAMETER: concentration at 672 h (nM)
Answers are plain numbers, in nM.

Sample CC(C)(C#Cc1ccc(-c2ccc(Cl)c3c(NS(C)(=O)=O)nn(CC(F)(F)F)c23)c([C@H](Cc2cc(F)cc(F)c2)NC(=O)Cn2nc(C(F)(F)F)c3c2C(F)(F)[C@@H]2C[C@H]32)n1)S(C)(=O)=O — what was its concentration at 672 h?
407
